Test system: HeLa S3
Test: Cytotoxicity against human HeLa S3 cells assessed as cell viability at 10 uM incubated for 72 hrs by CellTiter-Glo luminescence based assay
Assay type: functional
Conditions: read-out: Activity

>  <compound>
CCOC(=O)Nc1nc(=O)n(CCOCP(=O)(O)O)s1

>  <viability at 10 µM, %>
94

$$$$
>  <compound>
O=C(Nc1nc(=O)n(C[C@@H](CO)OCP(=O)(O)O)s1)OCC1c2ccccc2-c2ccccc21

>  <viability at 10 µM, %>
98

$$$$
>  <compound>
O=C(Nc1nc(=O)n(C[C@@H](CO)OCP(=O)(O)O)s1)c1ccccc1

>  <viability at 10 µM, %>
97

$$$$
>  <compound>
O=C(/N=c1\s[nH]c(=O)n1C[C@H](O)COC(c1ccccc1)(c1ccccc1)c1ccccc1)c1ccccc1

>  <viability at 10 µM, %>
45

$$$$
>  <compound>
O=C(Nc1nc(=O)n(CCOCP(=O)(O)O)s1)c1ccccc1

>  <viability at 10 µM, %>
101

$$$$
>  <compound>
Nc1nc(OCCOCP(=O)(O)O)ns1

>  <viability at 10 µM, %>
101

$$$$
>  <compound>
CC(C)OP(=O)(COCCn1sc(NC(=O)c2ccccc2)nc1=O)OC(C)C

>  <viability at 10 µM, %>
101

$$$$
>  <compound>
O=C(Nc1nc(=O)[nH]s1)c1ccccc1

>  <viability at 10 µM, %>
99

$$$$
>  <compound>
O=C(Nc1nc(=O)n(CCOCP(=O)(O)O)s1)OCC1c2ccccc2-c2ccccc21

>  <viability at 10 µM, %>
97

$$$$
>  <compound>
CCOC(=O)Nc1nc(=O)n(C[C@@H](CO)OCP(=O)(O)O)s1

>  <viability at 10 µM, %>
97

$$$$
>  <compound>
CC(C)OP(=O)(CO[C@H](CO)Cn1sc(NC(=O)OCC2c3ccccc3-c3ccccc32)nc1=O)OC(C)C

>  <viability at 10 µM, %>
99

$$$$
>  <compound>
Nc1nc(=O)[nH]s1

>  <viability at 10 µM, %>
100

$$$$
>  <compound>
CC(=O)Nc1nc(=O)[nH]s1

>  <viability at 10 µM, %>
97

$$$$
>  <compound>
CCOC(=O)Nc1nc(=O)n(C[C@@H](CO)OCP(=O)(OC(C)C)OC(C)C)s1

>  <viability at 10 µM, %>
90

$$$$
>  <compound>
CC(C)OP(=O)(COCCOc1nsc(N)n1)OC(C)C

>  <viability at 10 µM, %>
97

$$$$
>  <compound>
CN(C)/C=N/c1nc(=O)n(C[C@H](O)COC(c2ccccc2)(c2ccccc2)c2ccccc2)s1

>  <viability at 10 µM, %>
80

$$$$
>  <compound>
CC(C)OP(=O)(COCCOc1nsc(/N=C/N(C)C)n1)OC(C)C

>  <viability at 10 µM, %>
101

$$$$
>  <compound>
CC(C)OP(=O)(CO[C@H](CO)Cn1sc(NC(=O)c2ccccc2)nc1=O)OC(C)C

>  <viability at 10 µM, %>
97

$$$$
>  <compound>
CCOC(=O)Nc1nc(=O)n(CCOCP(=O)(OC(C)C)OC(C)C)s1

>  <viability at 10 µM, %>
100

$$$$
>  <compound>
CN(C)/C=N/c1nc(=O)[nH]s1

>  <viability at 10 µM, %>
97

$$$$
>  <compound>
CN(C)/C=N/c1nc(OC[C@H](O)COC(c2ccccc2)(c2ccccc2)c2ccccc2)ns1

>  <viability at 10 µM, %>
91

$$$$
>  <compound>
Cc1cnc(-c2cnc(NCCNc3ccc(C#N)cn3)nc2-c2ccc(Cl)cc2Cl)[nH]1 [LADUVIGLUSIB]

>  <viability at 10 µM, %>
67

$$$$
>  <compound>
O=c1sn(-c2cccc3ccccc23)c(=O)n1Cc1ccccc1 [TIDEGLUSIB]

>  <viability at 10 µM, %>
69

$$$$

* * *

Quick reference for Activity among some compounds
Target: UniProtKB P43235
Sequence (P43235 whole entry): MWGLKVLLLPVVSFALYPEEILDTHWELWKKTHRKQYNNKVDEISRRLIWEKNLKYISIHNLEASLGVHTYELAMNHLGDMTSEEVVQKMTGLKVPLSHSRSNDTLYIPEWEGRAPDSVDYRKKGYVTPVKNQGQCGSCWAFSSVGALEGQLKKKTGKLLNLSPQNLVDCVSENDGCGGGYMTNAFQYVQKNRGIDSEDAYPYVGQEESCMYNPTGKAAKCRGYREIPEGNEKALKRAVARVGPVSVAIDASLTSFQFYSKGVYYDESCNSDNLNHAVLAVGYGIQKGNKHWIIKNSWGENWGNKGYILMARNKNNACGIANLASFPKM
Assay: Inhibition of recombinant human Cathepsin K expressed in Pichia pastoris X-33 assessed as residual activity at 10 uM using Z-Gly-Pro-Arg-AMC as substrate preincubated for 10 mins followed by substrate addition measured after 30 mins by fluorescence based microplate reader assay
Conditions: time 40.0 min
experimental_readout: Activity (%)

>  <smiles_representation>
CN(C)/C=N/c1nc(=O)[nH]s1

>  <experimental_readout>
Activity

>  <recorded_number>
67

$$$$
>  <smiles_representation>
CCOC(=O)Nc1nc(=O)n(CCOCP(=O)(OC(C)C)OC(C)C)s1

>  <experimental_readout>
Activity

>  <recorded_number>
86.8

$$$$
>  <smiles_representation>
O=C(Nc1nc(=O)n(CCOCP(=O)(O)O)s1)OCC1c2ccccc2-c2ccccc21

>  <experimental_readout>
Activity

>  <recorded_number>
67

$$$$
>  <smiles_representation>
CCOC(=O)Nc1nc(=O)n(CCOCP(=O)(O)O)s1

>  <experimental_readout>
Activity

>  <recorded_number>
39.1

$$$$
>  <smiles_representation>
CC(C)OP(=O)(COCCOc1nsc(N)n1)OC(C)C

>  <experimental_readout>
Activity

>  <recorded_number>
78.3

$$$$
>  <smiles_representation>
CN(C)/C=N/c1nc(OC[C@H](O)COC(c2ccccc2)(c2ccccc2)c2ccccc2)ns1

>  <experimental_readout>
Activity

>  <recorded_number>
5.3

$$$$
>  <smiles_representation>
CC(C)OP(=O)(CO[C@H](CO)Cn1sc(NC(=O)OCC2c3ccccc3-c3ccccc32)nc1=O)OC(C)C

>  <experimental_readout>
Activity

>  <recorded_number>
34.1

$$$$
>  <smiles_representation>
O=C(Nc1nc(=O)n(CCOCP(=O)(O)O)s1)c1ccccc1

>  <experimental_readout>
Activity

>  <recorded_number>
90.3

$$$$
>  <smiles_representation>
CC(=O)Nc1nc(=O)[nH]s1

>  <experimental_readout>
Activity

>  <recorded_number>
76.6

$$$$
>  <smiles_representation>
O=C(Nc1nc(=O)[nH]s1)c1ccccc1

>  <experimental_readout>
Activity

>  <recorded_number>
85

$$$$
>  <smiles_representation>
O=C(Nc1nc(=O)n(C[C@@H](CO)OCP(=O)(O)O)s1)c1ccccc1

>  <experimental_readout>
Activity

>  <recorded_number>
92.3

$$$$
>  <smiles_representation>
CC(C)OP(=O)(COCCOc1nsc(/N=C/N(C)C)n1)OC(C)C

>  <experimental_readout>
Activity

>  <recorded_number>
52.9

$$$$
>  <smiles_representation>
CCOC(=O)Nc1nc(=O)n(C[C@@H](CO)OCP(=O)(O)O)s1

>  <experimental_readout>
Activity

>  <recorded_number>
97.5

$$$$
>  <smiles_representation>
CN(C)/C=N/c1nc(=O)n(C[C@H](O)COC(c2ccccc2)(c2ccccc2)c2ccccc2)s1

>  <experimental_readout>
Activity

>  <recorded_number>
28.3

$$$$
>  <smiles_representation>
Nc1nc(=O)[nH]s1

>  <experimental_readout>
Activity

>  <recorded_number>
16.9

$$$$
>  <smiles_representation>
O=C(Nc1nc(=O)n(C[C@@H](CO)OCP(=O)(O)O)s1)OCC1c2ccccc2-c2ccccc21

>  <experimental_readout>
Activity

>  <recorded_number>
85.5

$$$$
>  <smiles_representation>
CCOC(=O)Nc1nc(=O)n(C[C@@H](CO)OCP(=O)(OC(C)C)OC(C)C)s1

>  <experimental_readout>
Activity

>  <recorded_number>
83.4

$$$$
>  <smiles_representation>
CC(C)OP(=O)(COCCn1sc(NC(=O)c2ccccc2)nc1=O)OC(C)C

>  <experimental_readout>
Activity

>  <recorded_number>
80.6

$$$$
>  <smiles_representation>
O=C(/N=c1\s[nH]c(=O)n1C[C@H](O)COC(c1ccccc1)(c1ccccc1)c1ccccc1)c1ccccc1

>  <experimental_readout>
Activity

>  <recorded_number>
34.2

$$$$
>  <smiles_representation>
Nc1nc(OCCOCP(=O)(O)O)ns1

>  <experimental_readout>
Activity

>  <recorded_number>
90

$$$$
>  <smiles_representation>
CC(C)OP(=O)(CO[C@H](CO)Cn1sc(NC(=O)c2ccccc2)nc1=O)OC(C)C

>  <experimental_readout>
Activity

>  <recorded_number>
92.9

$$$$

* * *

Test system: CCRF-CEM
Experiment: Cytotoxicity against human CCRF-CEM cells assessed as cell viability at 10 uM incubated for 72 hrs by CellTiter-Glo luminescence based assay
Format: functional
Conditions: read-out: Activity

>  <molecule>
O=C(Nc1nc(=O)n(C[C@@H](CO)OCP(=O)(O)O)s1)OCC1c2ccccc2-c2ccccc21

>  <viability at 10 µM, %>
88

$$$$
>  <molecule>
CC(C)OP(=O)(COCCn1sc(NC(=O)c2ccccc2)nc1=O)OC(C)C

>  <viability at 10 µM, %>
100

$$$$
>  <molecule>
CN(C)/C=N/c1nc(OC[C@H](O)COC(c2ccccc2)(c2ccccc2)c2ccccc2)ns1

>  <viability at 10 µM, %>
101

$$$$
>  <molecule>
CC(C)OP(=O)(COCCOc1nsc(/N=C/N(C)C)n1)OC(C)C

>  <viability at 10 µM, %>
106

$$$$
>  <molecule>
O=C(Nc1nc(=O)n(C[C@@H](CO)OCP(=O)(O)O)s1)c1ccccc1

>  <viability at 10 µM, %>
72

$$$$
>  <molecule>
CC(=O)Nc1nc(=O)[nH]s1

>  <viability at 10 µM, %>
104

$$$$
>  <molecule>
CC(C)OP(=O)(CO[C@H](CO)Cn1sc(NC(=O)c2ccccc2)nc1=O)OC(C)C

>  <viability at 10 µM, %>
86

$$$$
>  <molecule>
CN(C)/C=N/c1nc(=O)n(C[C@H](O)COC(c2ccccc2)(c2ccccc2)c2ccccc2)s1

>  <viability at 10 µM, %>
15

$$$$
>  <molecule>
O=C(Nc1nc(=O)[nH]s1)c1ccccc1

>  <viability at 10 µM, %>
102

$$$$
>  <molecule>
O=c1sn(-c2cccc3ccccc23)c(=O)n1Cc1ccccc1 [TIDEGLUSIB]

>  <viability at 10 µM, %>
30

$$$$
>  <molecule>
O=C(/N=c1\s[nH]c(=O)n1C[C@H](O)COC(c1ccccc1)(c1ccccc1)c1ccccc1)c1ccccc1

>  <viability at 10 µM, %>
81

$$$$
>  <molecule>
CC(C)OP(=O)(COCCOc1nsc(N)n1)OC(C)C

>  <viability at 10 µM, %>
114

$$$$
